Readings of X geometric mean for the listed binders
Target: T1, human Claudin 3 (human, UniProt O15551 1-220)
T1 construct: forced expression in DG44 or Ba/F3 cells, or endogenous on MCF7 cells; four-transmembrane tight junction protein; also called hCLDN3; hCLN3
T1 sequence: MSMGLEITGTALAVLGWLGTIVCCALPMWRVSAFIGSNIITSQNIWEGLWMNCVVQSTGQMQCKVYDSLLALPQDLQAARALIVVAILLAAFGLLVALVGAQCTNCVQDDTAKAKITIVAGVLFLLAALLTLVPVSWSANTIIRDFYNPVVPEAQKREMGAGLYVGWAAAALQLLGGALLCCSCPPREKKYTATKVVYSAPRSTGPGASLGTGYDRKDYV
Test: flow cytometry, MCF7 cells (endogenous Claudin 3), 1 ug/mL antibody
Reply with just the number.

Solved cases below.
binder	X geometric mean
CDN28 (antibody, mouse IgG1, kappa, V domains shown, mouse monoclonal, IgG1/IgK) VH: EVQLQQSGPELVKPGASVKISCKASGYSFTGYFMNWVKQSHGKSLEWLGRINPYNGDTFYNQKFKGKATLTVDKSSNTAHMELRSLTSEDSAVYYCARGDGYYVTSLAYWGQGTLVTVSA VL: NIVMTQSPKSMSMSVGERVTLSCKASENVVSYVSWFQQKPEQSPKLLIYGASNRYTGVPDRFTGSGSATDFTLTISSVQAEDLADYYCGQSYSYPLTFGAGTKLELKR	175
CDN35 (antibody, V domains shown, mouse monoclonal, IgG2a/IgK) VH: EVQLQQSGPELVKPGASVKMSCKASGYTFTDYYMNWVKQSHGKSLEWIGRVNPSNGGTSYNQKFKGKATLTVDKSLSTAYMQLNSLTSEDSAVYYCARGLAYYSNSFTYWGQGTLVTVSA VL: KIVLTQSPASLAVSLRQRATISCRASESVDSYGNSFMHWYQQKPGQPPKLLIYRASNLESGVPARFSGSGSRTDFTLTIDPVEADDAATYYCQQNNEDPWTFGGGTKLEIKR	176

Query: Entry CDN38 (antibody, V domains shown) VH: EVQLQQSGPELVKPGASVKMSCKASGYSFTGYFMNWVKQSHGKSLEWIGRINPYNGDTFYNQKFKGKATLTVDKSSSTAHMELRSLTSEDSALYYCARSGNYVMDYWGQGTSVTVSS VL: DIVLTQSPASLAVSLGQSVTISCRASESVEYYGTSLMQWYQQKPGQPPKLLIYGASNVESGVPARFSGSGSGTDFSLNIHPVEEDDIAMYFCQQSRKVPWTFGGGTKLEIKR : reported X geometric mean = ?
Result: 63
